Reference for the values: patent US20240262826A1

# TARGET DESC: wild type c-kit (Homo sapiens (Human), UniProt P10721)
# Sequence (P10721 26-976): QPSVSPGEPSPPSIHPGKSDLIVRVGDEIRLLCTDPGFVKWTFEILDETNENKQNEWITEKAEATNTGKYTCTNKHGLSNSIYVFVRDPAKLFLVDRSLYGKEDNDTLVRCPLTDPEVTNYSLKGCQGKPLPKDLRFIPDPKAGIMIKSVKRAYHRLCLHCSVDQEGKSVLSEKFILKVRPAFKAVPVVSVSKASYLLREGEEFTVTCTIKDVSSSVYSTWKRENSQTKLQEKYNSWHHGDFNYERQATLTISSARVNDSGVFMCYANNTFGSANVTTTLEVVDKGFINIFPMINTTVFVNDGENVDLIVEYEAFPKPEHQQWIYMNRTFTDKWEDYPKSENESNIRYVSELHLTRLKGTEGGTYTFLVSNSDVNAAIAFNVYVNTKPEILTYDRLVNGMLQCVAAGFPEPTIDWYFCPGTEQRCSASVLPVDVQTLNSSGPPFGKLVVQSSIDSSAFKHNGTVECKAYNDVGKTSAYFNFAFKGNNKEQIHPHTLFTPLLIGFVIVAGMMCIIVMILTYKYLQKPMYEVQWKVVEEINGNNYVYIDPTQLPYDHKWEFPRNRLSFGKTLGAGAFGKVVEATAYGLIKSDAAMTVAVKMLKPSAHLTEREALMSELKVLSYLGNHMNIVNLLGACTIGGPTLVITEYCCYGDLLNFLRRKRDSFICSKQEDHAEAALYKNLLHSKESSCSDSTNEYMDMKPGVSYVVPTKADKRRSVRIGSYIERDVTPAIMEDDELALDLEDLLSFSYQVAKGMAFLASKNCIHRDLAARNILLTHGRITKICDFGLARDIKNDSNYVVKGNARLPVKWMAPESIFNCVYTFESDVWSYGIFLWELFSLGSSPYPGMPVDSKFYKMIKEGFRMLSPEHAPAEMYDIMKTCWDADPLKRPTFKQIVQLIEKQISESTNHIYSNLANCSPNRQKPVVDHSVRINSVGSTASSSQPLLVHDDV
# TEST SUMMARY: PathScan phospho c-kit (Tyr719) sandwich ELISA in SCF-stimulated M-07e cells (pKIT assay)
# Assay type: cell-based
# APPLIED CONDITIONS: ELISA assay (values not marked *)
pIC50: −log10 of the molar value.
Kind request: treat 9 as inclusive, so pIC50 at 9 or higher is 1, anything lower is -1.

Problem: In plain terms: is recorded pIC50 at least 9 for COC(=O)N1CC(n2nnc(-c3ccc(C)c(NC(=O)c4cnn5ccc(N6CCN(CC(F)F)CC6)cc45)c3)n2)C1 [Example 73] ?
Solution: -1

Problem: // inclusive: pIC50 at least 9? input: Cc1ccc(-n2nnc([C@@H]3CC3(F)F)n2)cc1NC(=O)c1cnn2ccc(-c3cnn(CCO)c3)cc12 (single isomer, unassigned) [Example 233]
Solution: -1

Problem: Would you say Cc1ccc(-c2nnn(C)n2)cc1NC(=O)c1cnn2ccc(-c3cnn(CC(C)(C)O)c3)cc12 [Example 48] shows pIC50 at minimum 9?
Solution: -1

Problem: Does the compound Cc1ccc(-c2nnn(C3CC3)n2)cc1NC(=O)c1cnn2ccc(-c3c(C)nn(CCO)c3C)cc12 [Example 208] have recorded pIC50 that is 9 or more?
Solution: 1

Problem: Given the entry COC(=O)N1CC(n2nnc(-c3ccc(C)c(NC(=O)c4cnn5ccc(N6CCN7CCC[C@@H]7C6)cc45)c3)n2)C1 [Example 75] , answer whether its pIC50 meets or surpasses 9.
Solution: -1

----------
# TARGET DESC: wild type c-kit (Homo sapiens (Human))
# TEST SUMMARY: PathScan phospho c-kit (Tyr719) sandwich ELISA in SCF-stimulated M-07e cells (pKIT assay)
# Format: cell-based
# APPLIED CONDITIONS: ELISA assay (values not marked *)
TEST READOUT: pIC50
Entry type: numeric. Quantity: pIC50, the -log10 of concentration in molar units.

Problem: Entry Cc1cc(F)c(-c2nnn(C3CC3)n2)cc1NC(=O)c1cnn2cc(F)c(-c3cn(CC(C)(C)O)nc3C)cc12 [Example 247] : reported pIC50 = ?
Solution: 9.30

Problem: Which pIC50 is reported for this compound? Cc1ccc(-n2nnc(C3CN(S(C)(=O)=O)C3)n2)cc1NC(=O)c1cnn2ccccc12 [Example 190]
Solution: 7.64

Problem: Could you tell me which pIC50 is on file for Cc1nnn(-c2ccc(Cl)c(NC(=O)c3cnn4ccc(-c5cnn(CC(C)(C)O)c5)cc34)c2)n1 [Example 212] ?
Solution: 8.25

Problem: Suppose we examine the compound Cc1ccc(-c2nnn(CC3CC4(CCC4)CO3)n2)cc1NC(=O)c1cnn2ccccc12 (centres unmarked) [Example 9] ; what pIC50 value has been reported?
Solution: 8.32

Problem: Param item = COCCNc1ccn2ncc(C(=O)Nc3cc(-c4nnn(C)n4)ccc3C)c2c1 [Example 87] ; retrieve measured pIC50.
Solution: 7.46

Problem: State the recorded pIC50 for this entry: COC(=O)N1CC(n2nnc(-c3ccc(Cl)c(NC(=O)c4cnn5ccccc45)c3)n2)C1 [Example 192]
Solution: 7.97

Problem: Can you share its pIC50? I mean this compound: Cc1ccc(-c2nnn(CC3CC4(CC4)CO3)n2)cc1NC(=O)c1cnn2ccccc12 (centres unmarked) [Example 10]
Solution: 8.42

Problem: Any idea what pIC50 was measured for COC(=O)N1CC(c2cnn(-c3ccc(C)c(NC(=O)c4cnn5ccc(N6CCOCC6)cc45)c3)n2)C1 [Example 80] ?
Solution: 8.04
